# assayNotes: folding stability dG unfold from trypsin proteolysis; higher = more stable
Quick reference for folding stability dG unfold among some sequences
testReadout: folding stability dG unfold (kcal/mol)

- SAGGSAGGSAGGKKIEIEFTVKILREPEPGELVPYEVKGKLEINIDPDGNLKIELKFEPGSAGGSAGGSAGG [r11_607_TrMRF]: 2.81
- SAGGGTFYLVVKVEKVAPNPETGELVEERLELVIPGKAPNAVSEEDLKAFVDALLPLGYKVEVELREGSAGG [r13_926_TrMRF]: 1.91
- SAGGSAGGSAGGMPPATTVVEKPETSLTLEKTPTTVTIHDKATGKTSTVPAAEVDPALLSAGGSAGGSAGGS [r10_512_JUSTAS]: -0.373
- SAGGSAGGSAGGIWITMRPDNPDEFIDALRKKGKIRIVEVEPKNGNVIMRVTLDGQPLTSAGGSAGGSAGGS [r10_695_TrROS]: 0.0442

====

# assayNotes: folding stability dG unfold from trypsin proteolysis; higher = more stable
Quick reference for folding stability dG unfold among some sequences
testReadout: folding stability dG unfold (kcal/mol)

* SAGGSAGGSAGPTVASVEVLEYDPETGYLTVRIYIPDNGEWVDVKAPVGTAEEIVKAAEKSAGGSAGGSAGG [r17_111_TrMRF] | 0.463
* SAGGSAGGSAGKKTYKLVIPVKPDKTVEEIAEEVKKLLGPGSKVEVEEKEDGFATVYVESSAGGSAGGSAGG [r17_20_TrMRF] | 0.292
* SAGGSAGGEIVITLPNVKSKEEAKKAAEKLIEELKKKGIKDKTIKVTVIDEKTGKEYTFTIKLKSAGGSAGG [r6_237_TrROS_Hall] | 3.81
* SEKIKELIKKLAEELNLKIVKIEKKEDGKIIIEFENGIKIEIEIDPEKKNKIKIKIEKTKNGKLKITIEPSA [r9_809_TrROS_Hall] | 1.67
* SAGGPFRVRISDEVIKELKKQGLKPGKKSVKITMQYPNGWVFRGTIKIPPANPKIPLKAEPVERLDDSAGGS [r16_497_TrROS] | 0.429
* SAGGSAMTIEIVVPTLEAIEKLAEETGAEVVEVRFFEEEGLVVVRIKVPESKEELLEKIREALGLESAGGSA [r15_118_TrROS_Hall] | 2.17
* SAGGSAGGSAMKTLVIEGLSLEEIEELAKEIPGKTVRIVFKDGSVITIYPDGKIEIEPLPESAGGSAGGSAG [r3_269_TrROS_Hall] | 1.75
* SAGGSAGGSADNPDDKKKQKPKPEIKVKVEWVVIPNGFLIFEITIAGGITLTIIIPFPPNMFSAGGSAGGSA [r18_192_TrROS] | 2
* MVLKVTIEITVTHPANPGKTEKLTIVVEAPTLEEALAAALEEIRRRLGLPPGAKVTVKVTVELVELPEEDLS [r1_149_TrROS_Hall] | 4.5
* SAGGMPKTITVERTLDVDPAVLASTTPEELVARVVEELRAEGVPISSVDPQTITRGATTVTVRVTLLESAGG [r13_432_JUSTAS] | 1.66
* SAGGSAGGSAGGMEIEKNENGELIIKFKSKEEAEKAIEELKKKGYKVELNEDGYLIIKPSAGGSAGGSAGGS [r10_1027_TrROS_Hall] | 3.34
* SAGGSAGGSMVEYTFTVYDPRTGKETLFTVPSDIPFEEAKEKVEKEIRKGLPPNYTVTFTKPASAGGSAGGS [r20_213_JUSTAS] | 1.75
* SAGGSAMKLTLKDKKGNTLFLEVEEKTSEDGTPYYEVKIYYPNTNKVEYAEVPVENLEEFAKKLADSAGGSA [r15_92_TrMRF] | 3.21
* SAGMTVEEVAAEIIASHPPSSTSVTLEVDVGPKPVRVTVEILPDPETGRPVPRVTVTDPNKNVTTEYVVSAG [r5_236_JUSTAS] | -0.173

====

# assayNotes: folding stability dG unfold from chymotrypsin proteolysis; higher = more stable
Quick reference for folding stability dG unfold among some sequences
testReadout: folding stability dG unfold

* SGPFQFFVKIEYKGKNGKTQERELPINMPPGDFDKFIEEILDDPNLEGADDVEIDVYMAGTGRPQEIEIPSA [r9_97_TrROS] | 1.22 kcal/mol
* SAGGSAGGSAKTYEVKITVTNPNGEKKEITLEVEAETEEELLAAIKALAPPGAKVEIEIREVSAGGSAGGSA [r18_60_TrROS_Hall] | 3.67 kcal/mol
* SAGGMTIVEKDGKLVLKITVTVPPGTTVEELKNALKELFGVEEVKVVKIEKNENGEITITVEAVFPKSAGGS [r16_234_TrROS_Hall] | 3.31 kcal/mol
* SAGGSAGGSMKIPSDYTLTPIETKDNGASTVTLEKVTYPGPSLLATFLTPPDGTVTLLEVKPVSAGGSAGGS [r20_103_JUSTAS] | 1.24 kcal/mol
* SAGGSAGGSAGGKLILKVKVEVVSVKVEPLPGVPGEVKVEVEVKVEVELIEVSEEELKSSAGGSAGGSAGGS [r10_654_TrROS_Hall] | 2.34 kcal/mol
* SAGGSAGGMEEIEIEINGKKAKIYRLPGDEDLFLIEVDGELYLVKVKKKDGKWEIVEVKKLDELSAGGSAGG [r6_915_TrROS_Hall] | 4.25 kcal/mol
* SAGGSAGGSFFIRVEYPKGKTRTYPIKNGPIEEALEQLPPGWDNVKVSIYNGNKPVEFEIPLPSAGGSAGGS [r12_767_TrROS] | 1.1 kcal/mol
* SAGGSAGGSAGGKVKIVSVSYDPETGKLTVEVEIPNPKKLLTVTTDNPNIPAEEIAKKLASAGGSAGGSAGG [r7_833_TrMRF] | 0.058 kcal/mol
* SMTISIPGGITITIEPKPNSYTLTVSFPDGSTVTRPVDPSDLTSAIKAVIREALRRADPNITEEEIEKLLSA [r9_634_JUSTAS] | 6.07 kcal/mol
* SAGGSAGGSAGGSMTTVTLPDAVSTNVTTTKLPDNTTKVDITTTFPDGSTRSSTITINPSAGGSAGGSAGGS [r4_452_JUSTAS] | 1.32 kcal/mol
* SAGGSAGGSANVKLKIDLDPGYGYIKIKLEWEDPGTGNKQEMEITIPIPIPPPPPPPANDKKSAGGSAGGSA [r18_361_TrROS] | 2.17 kcal/mol
* SAGGHHHHHHHHIDGKFRSEEEAKKLKEEIEKELRAKGYTDIEVEVEVKVEEPPPRRPRPGSPAYTLGSAGG [r13_6_JUSTAS] | 0.573 kcal/mol
* SAGGKGPKKIILPLKFKIKTKPNEKKSKIKFKLSLKLFPKAKKVEVKSSIKPLKNNYALLDFDIVIEASAGG [r13_872_TrMRF] | 3.6 kcal/mol
* SAGGSAGGSTPMSVEEIVERIKEEKRKENPNETVEIEFTAELKGGPEGAPEGIYPVKIKVPPGKSAGGSAGG [r6_79_JUSTAS] | 0.489 kcal/mol
* SAGGSAGGSAGMIKIEETVVLPDGTVVRKEKEIEPPNGKTTTLKTETVPVLSPGSESLLLSAGGSAGGSAGG [r11_919_JUSTAS] | 0.313 kcal/mol
* SAGGSAGGSAGGKKTIVIEINGKKYTITRIEFDKDTKKITIEIEFNGKKLKIEIELPKNLSAGGSAGGSAGG [r7_477_TrROS_Hall] | 3.31 kcal/mol
* SAGGVDKGPPDAEVSREVLPRKLPNGKELLEEIRTRVLASGSLLVDRTIRDPNSDKVESEELVDPGASAGGS [r8_129_JUSTAS] | -0.0363 kcal/mol
* SAGGMTKTVTVTIEIDVPPGVTVDELIEKLKELAEKLGLTVKVTSVTVEEVDGKLVVTVEVEIEPPEPSAGG [r13_351_TrROS_Hall] | 2.6 kcal/mol
* MNLSDPVSVAKLKKALEEIKKAIEELKKKGKKIEILAIELNDDSIKITPVTKSEEYIKKKKEEGIEIILLLS [r1_134_JUSTAS] | 0.677 kcal/mol
* SAGGSAGGSAGGMILVENPSLNESTVLSKDTPISSFKVPSDNSKVRIIIIYPSNSFVVISSAGGSAGGSAGG [r7_763_JUSTAS] | 1.55 kcal/mol
* SMKITIVENEDGSLKIKVYFKDTGKVVEKTFEKGETIEEQVKKLAEELEKELGLEVVDVEIVKLPPPEKPSA [r9_1205_TrROS_Hall] | 3.74 kcal/mol
* SMPEVRVEEVTIELEFTLPDGRTVRVEIRLTRVTLPDGRVFTRLEIKVEVPEEDEEARKLLKELLEELLSSA [r9_908_TrROS_Hall] | 4.75 kcal/mol
* SAGGSAGGSAGKALVFDSPEDLVEKLKENGVELTDIAEVDAPGGPVVLAPIEGIPKPGFGSAGGSAGGSAGG [r11_141_TrMRF] | 0.633 kcal/mol
* SAGGDPPNIEVVPYRVKFGGKPIPIQVFVMPNGQTIVRIKFPNGKKGWMPADDLDELLKNPFEIERVSAGGS [r16_105_TrROS] | 0.998 kcal/mol
* SAEVEIEVVEKDGKLYLVIRVRFPPGLKPGDKVTLTLTLPNGAKVTITRDKDGTRYITIVVELKDLEKLSAG [r14_754_TrROS_Hall] | 5.23 kcal/mol
* SAGGSAGGEERVRLPITLEVPVPLAPVLLVSPDGSERLVPLPSVTLRITLELELTKEEWEKLLSSAGGSAGG [r6_119_TrMRF] | 3.36 kcal/mol
* SAGGSAGGSAGIEIHVMEDPDGRWWLMITIKVKYKVRNPEDGDPIFEFEVTYTIMIWLKASAGGSAGGSAGG [r17_124_TrROS] | 5.9 kcal/mol
